The reported numbers originate from PubChem BioAssay (NCI).

- System: BT-549 breast
- Assay Text: NCI tumour cell line growth inhibition, 48 h
Property Label: TGI

Nc1cccc(CCN2CCN(CCCc3ccccc3)CC2)c1: > 100 µM
O=C(CC(=O)N1N=C(N2c3ccccc3Sc3ccccc32)CC1c1ccccc1)Nc1ccccc1Cl (centres undefined): > 100 µM

For `Clc1nc(Cl)c2ncn(C/C=C\COc3cccc(OC/C=C\Cn4cnc5c(Cl)nc(Cl)nc54)c3)c2n1` , what is its reported TGI?
> 100 µM

Also CCCCCCCCCC(CCCC(O)CC(=O)O)OC1OC(COC2OC(C)C(O)C(O)C2O)C(O)C(O)C1OC1OC(CO)C(O)C(O)C1OC1OC(C)C(OC(=O)CC(C)C)C(O)C1O (centres undefined) ?
> 60 µM

Would you kindly repeat that for `Brc1ccc(-c2[nH]c3ccccc3c2N=Nc2ccccc2)cc1` ?
41.5 µM

Same read-out for `CS(=O)(=O)CCN(CC#N)Cc1ccc(-c2ccc3ncnc(Nc4ccc(OCc5cccc(F)c5)c(Cl)c4)c3c2)o1` ?
> 25 µM

====

- Tested on: NCI/ADR-RES ovarian
- Assay Text: NCI tumour cell line growth inhibition, 48 h
Property Label: TGI

Solved entries:
CC1=CC(O)(c2ccccc2)C(N2CCOCC2)N1O (stereo not given): > 100 µM
O=C(CSc1nnc(-c2ccccn2)s1)N/N=C/c1ccc([N+](=O)[O-])cc1: > 100 µM
CC(NC(=O)OC(C)(C)C)C(=O)NC(Cc1ccccc1)C(=O)NCC(=O)ON=C1CCCC1 (stereo not given): > 100 µM
Cc1ncc(C(=O)Nc2ccc(CN3CCN(C)CC3)c(C(F)(F)F)c2)cc1C#Cc1c(N)ncc2ccc(F)cc12: 4.25 µM

API: value(readout=TGI, system=NCI/ADR-RES ovarian) for record O=C(CC(=O)N1N=C(N2c3ccccc3Sc3ccccc32)CC1c1ccccc1)Nc1ccccc1Cl (stereo not given)
> 100 µM

Param item: `COc1ccc2oc(=N)c(C(N)=O)cc2c1`
> 100 µM

Now try `COc1ccn(CC(=O)c2cc3ccccc3[nH]2)c(=O)n1` .
> 100 µM

Consider next the compound O=C1C(Br)=CC2C1C1C3CCC3C2(Br)C12OCCO2 (stereo not given) in the same way.
41 µM

Same question, `O=C(/C=C/c1cccs1)c1ccc(Cl)cc1Cl` this time
> 100 µM

Same lookup for `CC(C)(C)C1=NC(=P(c2ccccc2)(c2ccccc2)c2ccccc2)C(=O)O1` , please.
> 100 µM

Try the compound `Oc1c(I)cc(I)cc1CNCCN(Cc1ccccn1)Cc1ccccn1`
4.79 µM

Queued: `COc1cc(-c2cc(/C=C3\C(=O)Nc4cc(Cl)ccc43)[nH]n2)cc(OC)c1OC`
7.49 µM

Please do the same for `COc1cc(/C=C2\C[C@H]3[C@@H]4CC=C5C[C@@H](OC(C)=O)CC[C@]5(C)[C@H]4CC[C@]3(C)\C2=N\O)cc(OC)c1OC` as well.
> 88.9 µM

====

- System: BT-549 breast
- Assay Text: NCI tumour cell line growth inhibition, 48 h
Overview of reported TGI across a group of compounds:
Please give a number only; it is taken to be in µM.

Guide cases for TGI, answers given:
C=CCNCCN1C(=O)c2ccc3c4c(ccc(c24)C1=O)C(=O)N(CCNCC=C)C3=O: 10.2
Clc1ccc(CNc2ccc3nc(CCC4CCCCC4)[nH]c3c2)cc1: 7.24

Fill in the blank: the reported TGI of `Clc1ccc2c(NCCNC3CCCCC3)ccnc2c1` is ____.
23.3

What would you report for O=C1C(Br)=CC2C1C1C3CCC3C2(Br)C12OCCO2 (stereo unspecified) ?
18.1

Please give the result for `Cc1cc(Nc2nc(-c3ccc(F)cc3)nc3ccccc23)n[nH]1` too.
21.6
